meta.source: ChEMBL document CHEMBL1149127

Measured inhibition accompanies every entry in the list below.
System: Leishmania donovani
Assay: Inhibition percentage of Leishmanial tubulin assembly at a concentration of 10 uM.

CCCN(CCC)c1c([N+](=O)[O-])cc(S(=O)(=O)Nc2ccccc2)cc1[N+](=O)[O-] = 89%

Check the records and state inhibition for CCCN(CCC)c1c([N+](=O)[O-])cc(S(=O)(=O)NC)cc1[N+](=O)[O-]
< 20%

Report inhibition, nothing else, for this compound: CCCNS(=O)(=O)c1cc([N+](=O)[O-])c(N(CCC)CCC)c([N+](=O)[O-])c1
< 20%

====

Test: Tested for toxicity against mice by intraperitoneal administration; No signs of toxicity
Conditions: mouse, in vivo, ip
Dose values by entry
Numeric answer only, unit mg/kg assumed.

CCCN(CCC)c1c([N+](=O)[O-])cc(S(=O)(=O)Nc2ccccc2)cc1[N+](=O)[O-] = 20

For the compound CCCCN(CCCC)c1c([N+](=O)[O-])cc(S(=O)(=O)Nc2ccccc2)cc1[N+](=O)[O-] , give its reported Dose.
20
